- Species: Mus musculus
- ASSAY INFO: Anticonvulsant against maximal electroshock induced convulsions after 30 min.
- Assay type: functional
Non-standard residues stand in square brackets, D forms with d. Residues, ends and D or L forms follow the SMILES beside them. ξ: configuration not given here. *: point of attachment. NHBn = c1ccc(CN*)cc1; ξA = CC(N)C(=O)O
PARAMETER MEASURED: MES
Answer with a bare number; do not write a unit.

Below, each entry is followed by its recorded MES result.
CC(=O)NC(C(=O)NCc1ccccc1)(c1ccccc1)c1ccccc1	0
CC(=O)NC(C)C(=O)NCc1ccccc1 (configuration not stated)	3
CC(NC(=O)C(C)(C)C)C(=O)NCc1ccccc1 (configuration not stated)	2
CC(=O)NC(C(=O)NCc1ccccc1)c1ccccc1 (configuration not stated)	4
CC(=O)NCCC(=O)NCc1ccccc1	0
CC(=O)NCC(=O)NC(C)C(=O)NCc1ccccc1 (configuration not stated) (Ac-Gly-[ξA]-NHBn)	0

Recorded MES (compound CNC(=O)C(C)NC(C)=O (configuration not stated) ): 0

Recorded MES (compound CC(=O)NC(Cc1ccccc1)C(=O)NCc1ccccc1 (configuration not stated) ): 0

Recorded MES (compound CC(C)C(=O)NC(C)C(=O)NCc1ccccc1 (configuration not stated) ): 0

Recorded MES (compound CSCCC(NC(C)=O)C(=O)NCc1ccccc1 (configuration not stated) ): 2

Recorded MES (compound CC(=O)NC(C)C(=O)NCC(=O)NCc1ccccc1 (configuration not stated) (Ac-[ξA]-Gly-NHBn) ): 0

Recorded MES (compound CC(=O)NC(C(=O)NCc1ccccc1)C(C)C (configuration not stated) ): 2

* * *

- ASSAY INFO: Neurologic toxicity activity was determined by rotarod toxicity test (Phase IV Pharmacological Evaluation)
- Type: organism-based
- RUN PARAMETERS: mouse, in vivo
The following compounds are shown together with reported TD50 values.

CC(=O)NC(C(=O)NCc1ccccc1)c1ccccc1 (configuration not stated)	241 mg/kg

Let us move to another entry and its TD50.
Recorded TD50 (compound CCC1(C)CC(=O)NC1=O (configuration not stated) [ETHOSUXIMIDE] ): 879 mg/kg

* * *

The following compounds are shown together with reported ED50 values.
- Organism: Mus musculus
- ASSAY INFO: Anticonvulsant activity was determined by maximum-induced convulsions electroshock seizure test (Phase II Pharmacological Evaluation)
- Type: functional
Give your result in mg/kg as a bare value.

Below, each entry is followed by its recorded ED50 result.
CCCC(CCC)C(=O)O	272
CC(=O)NC(C)C(=O)NCc1cccc(F)c1 (centres undefined)	77.4
CC(=O)NC(C(=O)NCc1ccccc1)c1ccccc1 (centres undefined)	20.3

Let us move to another entry and its ED50.
Recorded ED50 (compound CC(=O)NC(C)C(=O)NCc1ccccc1 (centres undefined) ): 76.5

* * *

- Species on record: Mus musculus
- ASSAY INFO: Anticonvulsant activity was determined by rotarod toxicity test (neurologic toxicity) at an interval of 0.5 h
- Assay type: organism-based
- RUN PARAMETERS: in vivo
Non-standard residues stand in square brackets, D forms with d. Residues, ends and D or L forms follow the SMILES beside them. ξ: configuration not given here. *: point of attachment. NHBn = c1ccc(CN*)cc1; ξA = CC(N)C(=O)O
PARAMETER MEASURED: Toxicity
Answer with a bare number; do not write a unit.

Below, each entry is followed by its recorded Toxicity result.
COc1cccc(CNC(=O)C(C)NC(C)=O)c1 (configuration not stated)	0
CC(C)C(=O)NC(C)C(=O)NCc1ccccc1 (configuration not stated)	0
CC(=O)NC(C)C(=O)NCc1cccc(F)c1 (configuration not stated)	0
CC(=O)NC(C(=O)NCc1ccccc1)c1ccccc1 (configuration not stated)	2
CC(=O)NC(C)C(=O)NC(c1ccccc1)c1ccccc1 (configuration not stated)	0
CC(=O)NC(Cc1ccccc1)C(=O)NCc1ccccc1 (configuration not stated)	0
CC(=O)NCC(C)C(=O)NCc1ccccc1 (configuration not stated)	0
CC(=O)NC(C)C(=O)NCC(=O)NCc1ccccc1 (configuration not stated) (Ac-[ξA]-Gly-NHBn)	0

Recorded Toxicity (compound CC(NC(=O)C(C)(C)C)C(=O)NCc1ccccc1 (configuration not stated) ): 0

Recorded Toxicity (compound CC(=O)NC(C(=O)NCc1ccccc1)(c1ccccc1)c1ccccc1 ): 0

Recorded Toxicity (compound CSCCC(NC(C)=O)C(=O)NCc1ccccc1 (configuration not stated) ): 0

* * *

- Species on record: Mus musculus
- ASSAY INFO: Anticonvulsant against maximal electroshock induced convulsions after 30 min.
- Assay type: functional
PARAMETER MEASURED: MES
Answer with a bare number; do not write a unit.

CC(=O)NC(C)C(=O)NC(c1ccccc1)c1ccccc1 (stereo not given)	0
CC(=O)NCC(=O)NCc1ccccc1	2
CC(=O)NC(C)C(=O)NCc1cccc(F)c1 (stereo not given)	3
COc1cccc(CNC(=O)C(C)NC(C)=O)c1 (stereo not given)	2

Recorded MES (molecule CC(=O)NCC(C)C(=O)NCc1ccccc1 (stereo not given) ): 2

* * *

The following compounds are shown together with reported TD50 values.
- ASSAY INFO: Neurologic toxicity activity was determined by rotarod toxicity test (Phase II Pharmacological Evaluation)
- Assay type: organism-based
- RUN PARAMETERS: mouse, in vivo
Give your result in mg/kg as a bare value.

CC(=O)NC(C(=O)NCc1ccccc1)c1ccccc1 (configuration not stated)	96.9

Let us move to another entry and its TD50.
Recorded TD50 (compound CCC1(C)CC(=O)NC1=O (configuration not stated) [ETHOSUXIMIDE] ): 441

* * *

- Species: Mus musculus
- ASSAY INFO: Anticonvulsant activity was determined by rotarod toxicity test (neurologic toxicity) at an interval of 0.5 h
- Assay type: organism-based
- RUN PARAMETERS: in vivo
Non-standard residues stand in square brackets, D forms with d. Residues, ends and D or L forms follow the SMILES beside them. ξ: configuration not given here. *: point of attachment. NHBn = c1ccc(CN*)cc1; ξA = CC(N)C(=O)O
PARAMETER MEASURED: Toxicity

CC(=O)NCC(=O)NC(C)C(=O)NCc1ccccc1 (stereo unspecified) (Ac-Gly-[ξA]-NHBn)	0
CC(=O)NC(C)C(=O)NCc1ccccc1 (stereo unspecified)	1
CC(=O)NC(C(=O)NCc1ccccc1)C(C)C (stereo unspecified)	0
CC(=O)NCC(=O)NCc1ccccc1	2
CNC(=O)C(C)NC(C)=O (stereo unspecified)	0

Let us move to another entry and its Toxicity.
Recorded Toxicity (compound CC(=O)NCCC(=O)NCc1ccccc1 ): 0
